Listing: TGI of selected compounds
# Tested on: HOP-62 NSCLC
# MEASUREMENT NOTES: NCI tumour cell line growth inhibition, 48 h

Solved entries:
COMPOUND	TGI
CCN(CC)CCCC(C)Nc1c2ccc(C)cc2nc2ccc(OC)cc12 (centres undefined)	3.49 µM
C=C1C(=O)OC2/C=C(\C=O)CC/C=C(\C)C(O)C[C@@H]12 (some centres undefined)	61.3 µM
CC(=O)O[C@@H]1C2C(=O)OC(=O)C2C2CCC[C@]23O[C@H]13 (some centres undefined)	> 100 µM
COc1ccc(/C=C2\C(=O)N(C(=O)Cc3ccccc3)N=C2C)cc1OC	> 100 µM
CC(=O)Oc1ccc(C2COc3cc(OC(C)=O)c(OC(C)=O)cc3C2)cc1 (centres undefined)	48 µM

Req: Param readout = TGI; param system = HOP-62 NSCLC; param query = COc1ccc(C2C(C#N)=C(S)N(C3OC(CO)C(O)C(O)C3O)C(c3ccccc3)=C2C(C)=O)cc1 (centres undefined) ; response: value
Resp: > 100 µM

Req: API: value(readout=TGI, system=HOP-62 NSCLC) for record CN(C)C(=O)O[C@@H]1CN[C@@H](C#Cc2cc3ncnc(Nc4ccc(OCc5cccc(F)c5)c(Cl)c4)c3s2)C1
Resp: > 25 µM

Req: Look up TGI with HOP-62 NSCLC for this compound: CN1C(=O)C(Cl)(C(Cl)(Cl)S(=O)(=O)O)C(=O)c2ccccc21 (centres undefined)
Resp: > 100 µM

Req: Form entry - test system: HOP-62 NSCLC; read-out: TGI; compound: CC(=O)N1CCN(C23OC4(N5CCN(C(C)=O)CC5)C5C6CC(C7C6C4C72)C53)CC1 (centres undefined)
Resp: > 100 µM

* * *

# TGI values compiled below
# Test system: U251 CNS
# MEASUREMENT NOTES: NCI tumour cell line growth inhibition, 48 h

COMPOUND	OBSERVED VALUE
Cc1nc(C(N)=S)sc1C(=O)C/C(=N/N)C(=O)Nc1cccc(Cl)c1C	> 100 µM
C=C=C(C(=O)OC)S(=O)c1ccc([N+](=O)[O-])cc1[N+](=O)[O-] (stereo not drawn)	62.7 µM

In the following, a different compound is considered.
Req: Lookup: TGI / U251 CNS / NNC(=S)N1CCN(C(=S)NN)CC1
Resp: > 100 µM

* * *

Below: a set of entries, each annotated with reported TGI.
# Tested on: SK-MEL-2 melanoma
# MEASUREMENT NOTES: NCI tumour cell line growth inhibition, 48 h

Field: example entries. Status: answers known.
COMPOUND	TGI
Cc1ccc(C(=O)/C(C#N)=C/Nc2c(C)n(C)n(-c3ccccc3)c2=O)cc1	> 100 µM
COC(=O)c1c(-c2ccccc2)sc(-c2cccc3ccccc23)c1C(=O)OC	> 100 µM
N#C[C@@H]1C(n2ccc(N)nc2=O)O[C@H](CO)[C@H]1O (stereo not given in full)	> 100 µM
COc1ccc(Cl)cc1Nc1nc(C(F)(F)F)ccc1C(=O)N/N=C/c1cc(OC)c(OC)c(OC)c1	5.35 µM

Attention now shifts to the item below.
Req: Consider the compound Oc1ccc(CCc2cc(O)cc(O)c2)cc1 and give its measured TGI.
Resp: > 100 µM

* * *

# Test system: MALME-3M melanoma
# MEASUREMENT NOTES: NCI tumour cell line growth inhibition, 48 h; in the data active = GI50 below about 0.43 µM; inactive = the rest
Result category, one only: YES for active, NO for inactive

These solved cases illustrate the format of a correct answer.
MOLECULE	CLASS
COc1ccc(C2CC(n3nnnc3-c3ccccc3)=NN2)cc1 (centres undefined)	NO
COc1cc(S(=O)(=O)Nc2ccc(C3=NNC(c4ccccc4)C3)cc2)ccc1F (centres undefined)	NO

Req: Please share the test call associated with NC(=O)c1ccc(C2C3=C(CCCC3=O)OC3=C2C(=O)c2ccccc2C3=O)cc1 (centres undefined) .
Resp: YES

Req: What did this assay record as the result for Cc1ccc(NC(=O)Cn2c(Br)nc3c2c(=O)n(C)c(=O)n3C)cc1 ?
Resp: NO

Req: Please let me know the test result on file for CC(C)(C)NC(=O)[C@H]1C[C@H]2CCCC[C@H]2CN1C[C@@H](O)[C@H](Cc1ccccc1)NC(=O)[C@H](CC(N)=O)NC(=O)c1ccc2ccccc2n1 .
Resp: NO

* * *

The following molecules are listed with their measured TGI values.
# System: UO-31 renal
# MEASUREMENT NOTES: NCI tumour cell line growth inhibition, 48 h
Write the value in µM as a bare number.

Req: Item COc1cc(/C=C2\CCC(C)C3=C2NC(=S)NC3c2cc(OC)c(OC)c(OC)c2)cc(OC)c1OC (centres undefined) has what recorded TGI?
Resp: 66

Req: Please give the measured TGI for this molecule: C=C=C(C(=O)OC)S(=O)c1ccc([N+](=O)[O-])cc1[N+](=O)[O-] (centres undefined)
Resp: 98.2

Req: Name the reported TGI value associated with the molecule Cc1ccc(N=Nc2c(C)c(C#N)c(=S)n(C3OC(CO)C(O)C(O)C3O)c2-c2ccccc2)cc1 (centres undefined)
Resp: 86.9

Req: Given the molecule CN[C@@H]1C[C@H]2O[C@@](C)([C@@H]1OC)n1c3ccccc3c3c4c(c5c6ccccc6n2c5c31)C(=O)N[C@@H]4O , what is its reported TGI?
Resp: 0.0645

* * *

# Test system: NCI-H23 lung
# MEASUREMENT NOTES: NCI tumour cell line growth inhibition, 48 h
TGI for assorted molecules

// below: answered molecules
MOLECULE	OBSERVED VALUE
CC(C)N(C)C(=O)C12C3C4C1C1C2C3C41C#N (stereo unspecified)	> 100 µM
O=[N+]([O-])c1ccc2c(c1)[O][Sn][O]2	143 µg/mL
CCC(c1cccc(O)c1)C(CC)c1cccc(O)c1 (stereo unspecified)	16.6 µM
O=C(NCc1ccc(Cl)cc1)c1cc2sccc2nc1C(F)(F)F	> 100 µM
Cc1c(Cl)cccc1NC(=O)CC1C(=O)Nc2ccccc2S1(=O)=O (stereo unspecified)	37.3 µM

Proceeding to the next molecule to report its TGI.
Req: Give the measured TGI of NC(=O)c1ccc(C2C3=C(CCCC3=O)OC3=C2C(=O)c2ccccc2C3=O)cc1 (stereo unspecified) .
Resp: 1.14 µM

* * *

# Tested on: NCI-H460 lung
Returns: one label drawn from 1 = active, -1 = inactive

Example entries and their recorded answers appear below.
COMPOUND	TARGET OF ASSAY	CLASS
O=C([CH-]C(=O)C(F)(F)F)c1ccccc1.O=C([CH-]C(=O)C(F)(F)F)c1ccccc1.O=C([CH-]C(=O)C(F)(F)F)c1ccccc1.O=C([CH-]C(=O)C(F)(F)F)c1ccccc1.[Eu+3].c1ccncc1	NCI-H460 lung	-1
CSc1ccc(/C=C2\C=C(CC(=O)NCc3ccc(C(=O)c4ccccc4)cc3)c3cc(F)ccc32)cc1	NCI-H460 lung	1
O=C1CC(=O)OC(c2ccc([N+](=O)[O-])cc2)O1	NCI-H460 lung	-1
CCOc1c(Cl)cc(CNC(C)C(O)c2ccccc2)cc1OC (configuration not stated)	NCI-H460 lung	-1

Req: // param item: O=[N+]([O-])c1ccc2c(c1)[O][Sn]([I])([I])[O]2 ; yields the recorded call
Resp: -1

Req: Hi, sorry to bother you, what did the test record for O=C1CCCN1CC#CCN1CCCC1 ?
Resp: -1

Req: Dear all, I need the recorded test outcome for COc1cc(Cn2c(-c3nonc3N)nc3ccccc32)ccc1C , thank you.
Resp: 1

* * *

TGI values by entry
# Tested on: UACC-257 melanoma
# MEASUREMENT NOTES: NCI tumour cell line growth inhibition, 48 h

Reference set (5 entries):
COMPOUND	TGI
O=C(O)CSc1ncccc1[N+](=O)[O-]	> 100 µM
CCc1ccc2c(c1)CC1(C2)Cc2cc3c(cc2C1)C(=O)CC3 (centres undefined)	51.6 µM
C[N+]1(C)C/C(=C\c2ccncc2)C(=O)/C(=C/c2ccncc2)C1	> 100 µM
Cc1c2ccc(N(C)c3ccnc(Nc4cccc(S(N)(=O)=O)c4)n3)cc2nn1C	> 25 µM
O=c1[nH]c(N/N=C\C(O)C(O)C(O)CO)nc2ccccc12 (centres undefined)	> 100 µM

Req: Requested read-out: TGI. Entry: S=c1nc(-c2cccnc2)[nH][nH]1
Resp: > 100 µM

Req: Fill blank: measured TGI of the compound Cn1cnc2c(sc3nc4ccccc4n32)c1=N is ____.
Resp: > 100 µM

Req: What TGI value was documented for this compound, C=C(C=O)CCCC(C)[C@@H]1CCC23CC12CCC1[C@@]2(C)CCC(OC(C)=O)C(C)(C)C2CC(OC2OC(COC(C)=O)C(O)C(O)C2O)[C@]13C (some centres undefined) ?
Resp: 11.6 µM

Req: Name the recorded TGI for NC(=O)c1ccc(C2C3=C(CCCC3=O)OC3=C2C(=O)c2ccccc2C3=O)cc1 (centres undefined) .
Resp: 1.26 µM

From: PubChem BioAssay (NCI)
